# test system: AT1 receptor (Rattus norvegicus)
# Construct: from tissue; host or cells: rat liver membranes
# Sequence (P25095 whole entry): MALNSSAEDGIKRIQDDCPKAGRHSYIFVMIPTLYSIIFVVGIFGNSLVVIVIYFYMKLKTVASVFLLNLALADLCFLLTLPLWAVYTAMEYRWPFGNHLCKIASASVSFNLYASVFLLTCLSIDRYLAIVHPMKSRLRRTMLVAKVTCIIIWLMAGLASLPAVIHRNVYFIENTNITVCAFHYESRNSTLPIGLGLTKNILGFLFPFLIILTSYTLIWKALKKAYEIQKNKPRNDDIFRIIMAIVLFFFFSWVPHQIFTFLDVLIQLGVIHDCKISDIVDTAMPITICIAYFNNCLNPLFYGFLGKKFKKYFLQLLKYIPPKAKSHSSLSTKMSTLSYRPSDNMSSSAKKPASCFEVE
# assay info: Inhibition of [125I]Sar1,Ile8-angiotensin II binding in rat liver membranes
# condition set: displacement of 25 pM [125I]-Sar1,Ile8-angiotensin II, rat liver membranes, 180 min at 25° C.
pIC50: −log10 of the molar value.
# if value of pIC50 reaches 7, tag true; if it stays below, tag false

// inclusive: pIC50 at least 7? input: "CCCc1c(Br)cc(C=O)n1Cc1ccc(-c2ccccc2-c2nnn[nH]2)cc1" false

Input "CCCCc1ccc(C(=O)O)n1Cc1ccc(-c2ccccc2-c2nnn[nH]2)cc1" false

What do we get for "CCCc1c(Cl)cc(C=O)n1Cc1ccc(-c2ccccc2-c2nnn[nH]2)cc1" ? false

Follow-up entry: "CC(C)CCc1cc(C(C)C)c(C=O)n1Cc1ccc(-c2ccccc2-c2nnn[nH]2)cc1" true

Now the same for "CCCc1cc(C(C)C)c(C=O)n1Cc1ccc(-c2ccccc2-c2nnn[nH]2)cc1" true

Shifting focus to the compound that follows.
Exam item: decide whether the reported pIC50 for "CCCc1cc(C(C)C)c(C)n1Cc1ccc(-c2ccccc2-c2nnn[nH]2)cc1" is at least 7. false
